This listing pairs compounds with measured pIC50.
- Test system: HEK-293 cells
- assay_text: HEK-293 cytotoxicity detection (CellTiter-Glo)
- Assay type: cell-based
- condition: Homo sapiens, 72 h incubation, read-out: HEK293
- Procedure: The IC50 (DC50) value of a compound can be obtained by fitting the following equation Y=Bottom+(TOP−Bottom)/(1+((IC50/X)^hillslope)) wherein, X and Y are known values, and IC50, Hillslope, Top and Bottom are the parameters obtained by fitting with software. […] 25 μl of the CellTiter-Glo® Reagent [(Promega)—Cat No. G7572] was added to each well in the 96-well plate. […] Luminescence was recorded on BMG PheraStar with luminescence protocol. […]
pIC50: −log10 of the molar value.

Please review the entries below; each comes with its answer.
{"compound": "Cc1cc(-c2cc(Nc3ncc(N4CCN(CC5CCN(c6ccc(N7CCC(=O)NC7=O)cc6)CC5)CC4)s3)ncn2)c(F)cc1[C@@H](C)NC(=O)c1nc(C(C)(C)C)no1", "measurement_label": "pIC50", "value_reported": "< 5.00"}
{"compound": "Cc1cc(-c2cc(Nc3ccc(N4CCN([C@H]5C[C@H](c6ccc(N[C@H]7CCC(=O)NC7=O)cc6)C5)CC4)cn3)ncn2)ccc1[C@@H](C)NC(=O)c1nc(C(C)(C)C)no1", "measurement_label": "pIC50", "value_reported": "< 5.00"}

Would you kindly look at the next entry?
Report measured pIC50; entry is Cc1cc(-c2cc(Nc3ccc(N4CCN(CCc5ccc(C6CCC(=O)NC6=O)c(F)c5)CC4)cn3)ncn2)ccc1[C@@H](C)NC(=O)c1nc(C(C)(C)C)no1 (stereo partly drawn)
< 5.00
